# Tested on: Salmonella typhi
# Assay protocol: Antibacterial activity against Salmonella enterica subsp. enterica serovar Typhi MTCC 98 after 24 hr by broth microdilution method
# Format: functional
# Measurement setup: MTCC 98, 24 h

{"Compound": "N#Cc1c(N)nc(Sc2ccc(Cl)cc2)c(C#N)c1-c1cc2ccccc2nc1Sc1ccccc1", "Uom": "µg/mL", "MIC": 250}
{"Compound": "Cc1ccc2nc(Sc3ccccc3)c(-c3c(C#N)c(N)nc(Sc4ccc(Cl)cc4)c3C#N)cc2c1", "Uom": "µg/mL", "MIC": 100}
{"Compound": "O=Cc1cc2ccccc2nc1Sc1ccc(Cl)cc1", "Uom": "µg/mL", "MIC": 250}
{"Compound": "Cc1ccc(Sc2nc3ccccc3cc2-c2c(C#N)c(N)nc(Sc3ccccc3)c2C#N)cc1", "Uom": "µg/mL", "MIC": 125}
{"Compound": "Cc1ccc2nc(Sc3ccc(Cl)cc3)c(C=O)cc2c1", "Uom": "µg/mL", "MIC": 125}
{"Compound": "Cc1ccc(Sc2nc(N)c(C#N)c(-c3cc4cc(C)ccc4nc3Sc3ccccc3)c2C#N)cc1", "Uom": "µg/mL", "MIC": 100}
{"Compound": "Cc1ccc(Sc2nc(N)c(C#N)c(-c3cc4ccccc4nc3Sc3ccc(Cl)cc3)c2C#N)cc1", "Uom": "µg/mL", "MIC": 100}
{"Compound": "N#Cc1c(N)nc(Sc2ccccc2)c(C#N)c1-c1cc2ccccc2nc1Sc1ccccc1", "Uom": "µg/mL", "MIC": 200}
{"Compound": "Cc1ccc(Sc2nc3ccc(C)cc3cc2-c2c(C#N)c(N)nc(Sc3ccc(C)cc3)c2C#N)cc1", "Uom": "µg/mL", "MIC": 125}
{"Compound": "CC1(C)S[C@@H]2[C@H](NC(=O)[C@H](N)c3ccccc3)C(=O)N2[C@H]1C(=O)O [AMPICILLIN]", "Uom": "µg/mL", "MIC": 100}
{"Compound": "Cc1ccc(Sc2nc3ccccc3cc2-c2c(C#N)c(N)nc(Sc3ccc(C)cc3)c2C#N)cc1", "Uom": "µg/mL", "MIC": 250}
{"Compound": "N#Cc1c(N)nc(Sc2ccccc2)c(C#N)c1-c1cc2ccccc2nc1Sc1ccc(Cl)cc1", "Uom": "µg/mL", "MIC": 200}
{"Compound": "Cc1ccc(Sc2nc3ccc(C)cc3cc2-c2c(C#N)c(N)nc(Sc3ccccc3)c2C#N)cc1", "Uom": "µg/mL", "MIC": 200}
{"Compound": "Cc1ccc(Sc2nc3ccccc3cc2-c2c(C#N)c(N)nc(Sc3ccc(Cl)cc3)c2C#N)cc1", "Uom": "µg/mL", "MIC": 200}
{"Compound": "Cc1ccc(Sc2nc(N)c(C#N)c(-c3cc4ccccc4nc3Sc3ccccc3)c2C#N)cc1", "Uom": "µg/mL", "MIC": 125}
{"Compound": "Cc1ccc(Sc2nc3ccc(C)cc3cc2C=O)cc1", "Uom": "µg/mL", "MIC": 200}
{"Compound": "O=C(O)c1cn(C2CC2)c2cc(N3CCNCC3)c(F)cc2c1=O [CIPROFLOXACIN]", "Uom": "µg/mL", "MIC": 25}
{"Compound": "Cc1ccc(Sc2nc3ccc(C)cc3cc2-c2c(C#N)c(N)nc(Sc3ccc(Cl)cc3)c2C#N)cc1", "Uom": "µg/mL", "MIC": 100}
{"Compound": "Cc1ccc2nc(Sc3ccccc3)c(-c3c(C#N)c(N)nc(Sc4ccccc4)c3C#N)cc2c1", "Uom": "µg/mL", "MIC": 200}
{"Compound": "Cc1ccc2nc(Sc3ccc(Cl)cc3)c(-c3c(C#N)c(N)nc(Sc4ccccc4)c3C#N)cc2c1", "Uom": "µg/mL", "MIC": 200}
{"Compound": "O=Cc1cc2ccccc2nc1Sc1ccccc1", "Uom": "µg/mL", "MIC": 250}
{"Compound": "CCn1cc(C(=O)O)c(=O)c2cc(F)c(N3CCNCC3)cc21 [NORFLOXACIN]", "Uom": "µg/mL", "MIC": 10}
{"Compound": "Cc1ccc(Sc2nc(N)c(C#N)c(-c3cc4cc(C)ccc4nc3Sc3ccc(Cl)cc3)c2C#N)cc1", "Uom": "µg/mL", "MIC": 200}
{"Compound": "N#Cc1c(N)nc(Sc2ccc(Cl)cc2)c(C#N)c1-c1cc2ccccc2nc1Sc1ccc(Cl)cc1", "Uom": "µg/mL", "MIC": 200}
{"Compound": "Cc1ccc(Sc2nc3ccccc3cc2C=O)cc1", "Uom": "µg/mL", "MIC": 250}
{"Compound": "Cc1ccc2nc(Sc3ccccc3)c(C=O)cc2c1", "Uom": "µg/mL", "MIC": 200}
{"Compound": "Cc1ccc2nc(Sc3ccc(Cl)cc3)c(-c3c(C#N)c(N)nc(Sc4ccc(Cl)cc4)c3C#N)cc2c1", "Uom": "µg/mL", "MIC": 100}

---

# Tested on: Bacillus subtilis
# Assay protocol: Antibacterial activity against Bacillus subtilis MTCC 441 after 24 hr by broth microdilution method
# Assay type: functional
# Measurement setup: MTCC 441, 24 h

{"Compound": "O=Cc1cc2ccccc2nc1Sc1ccc(Cl)cc1", "Test target": "Bacillus subtilis", "MIC / µg/mL": 250}
{"Compound": "Cc1ccc(Sc2nc(N)c(C#N)c(-c3cc4cc(C)ccc4nc3Sc3ccc(Cl)cc3)c2C#N)cc1", "Test target": "Bacillus subtilis", "MIC / µg/mL": 100}
{"Compound": "Cc1ccc2nc(Sc3ccccc3)c(-c3c(C#N)c(N)nc(Sc4ccc(Cl)cc4)c3C#N)cc2c1", "Test target": "Bacillus subtilis", "MIC / µg/mL": 500}
{"Compound": "Cc1ccc(Sc2nc(N)c(C#N)c(-c3cc4ccccc4nc3Sc3ccccc3)c2C#N)cc1", "Test target": "Bacillus subtilis", "MIC / µg/mL": 200}
{"Compound": "Cc1ccc(Sc2nc3ccc(C)cc3cc2-c2c(C#N)c(N)nc(Sc3ccc(Cl)cc3)c2C#N)cc1", "Test target": "Bacillus subtilis", "MIC / µg/mL": 250}
{"Compound": "CCn1cc(C(=O)O)c(=O)c2cc(F)c(N3CCNCC3)cc21", "Test target": "Bacillus subtilis", "MIC / µg/mL": 100}
{"Compound": "Cc1ccc(Sc2nc3ccccc3cc2C=O)cc1", "Test target": "Bacillus subtilis", "MIC / µg/mL": 250}
{"Compound": "Cc1ccc2nc(Sc3ccc(Cl)cc3)c(-c3c(C#N)c(N)nc(Sc4ccc(Cl)cc4)c3C#N)cc2c1", "Test target": "Bacillus subtilis", "MIC / µg/mL": 500}
{"Compound": "N#Cc1c(N)nc(Sc2ccc(Cl)cc2)c(C#N)c1-c1cc2ccccc2nc1Sc1ccccc1", "Test target": "Bacillus subtilis", "MIC / µg/mL": 250}
{"Compound": "Cc1ccc2nc(Sc3ccc(Cl)cc3)c(C=O)cc2c1", "Test target": "Bacillus subtilis", "MIC / µg/mL": 500}
{"Compound": "Cc1ccc2nc(Sc3ccccc3)c(C=O)cc2c1", "Test target": "Bacillus subtilis", "MIC / µg/mL": 500}
{"Compound": "Cc1ccc2nc(Sc3ccccc3)c(-c3c(C#N)c(N)nc(Sc4ccccc4)c3C#N)cc2c1", "Test target": "Bacillus subtilis", "MIC / µg/mL": 250}
{"Compound": "CC1(C)S[C@@H]2[C@H](NC(=O)[C@H](N)c3ccccc3)C(=O)N2[C@H]1C(=O)O", "Test target": "Bacillus subtilis", "MIC / µg/mL": 250}
{"Compound": "Cc1ccc(Sc2nc3ccccc3cc2-c2c(C#N)c(N)nc(Sc3ccccc3)c2C#N)cc1", "Test target": "Bacillus subtilis", "MIC / µg/mL": 250}
{"Compound": "Cc1ccc(Sc2nc(N)c(C#N)c(-c3cc4ccccc4nc3Sc3ccc(Cl)cc3)c2C#N)cc1", "Test target": "Bacillus subtilis", "MIC / µg/mL": 100}
{"Compound": "N#Cc1c(N)nc(Sc2ccccc2)c(C#N)c1-c1cc2ccccc2nc1Sc1ccccc1", "Test target": "Bacillus subtilis", "MIC / µg/mL": 500}
{"Compound": "Cc1ccc(Sc2nc(N)c(C#N)c(-c3cc4cc(C)ccc4nc3Sc3ccccc3)c2C#N)cc1", "Test target": "Bacillus subtilis", "MIC / µg/mL": 500}
{"Compound": "Cc1ccc(Sc2nc3ccc(C)cc3cc2C=O)cc1", "Test target": "Bacillus subtilis", "MIC / µg/mL": 250}
{"Compound": "N#Cc1c(N)nc(Sc2ccccc2)c(C#N)c1-c1cc2ccccc2nc1Sc1ccc(Cl)cc1", "Test target": "Bacillus subtilis", "MIC / µg/mL": 100}
{"Compound": "Cc1ccc(Sc2nc3ccccc3cc2-c2c(C#N)c(N)nc(Sc3ccc(C)cc3)c2C#N)cc1", "Test target": "Bacillus subtilis", "MIC / µg/mL": 250}

Data provenance is ChEMBL document CHEMBL3045635.
